Quick record: log10 of IC50, MPXV H1 (Monkeypox virus, UniProt A0A7H0DN78).
The figures below represent log10 of IC50, where IC50 is stated in µM.

Example results:
| compound | experimental_readout | quantitative_result |
| --- | --- | --- |
| Cn1cccc1/C=C1\C(=O)NC(=O)c2ccccc21 | log10 of IC50 | -0.10 |
| Nc1cc(N)c(N)cc1N | log10 of IC50 | -0.48 |
| Cc1c(S(=O)(=O)O)oc2c1C(=O)C(=O)c1c-2ccc2c1CCCC2(C)C [Compound 111, Tanshinone IIA sulfonate sodium] | log10 of IC50 | -0.54 |
| CC(=O)c1cc2c(o1)C(=O)c1ccccc1C2=O | log10 of IC50 | -0.02 |
| O=C1C=C(Cl)C(=O)c2ccccc21 | log10 of IC50 | -0.08 |

Request: Can you look up the measured log10 of IC50 of CC1=CC(=O)c2c(O)cccc2C1=O for me?
Result: -0.06

Request: Moving on to COc1ccc2c(c1OC)CC1c3c(cc4c(c3-2)OCO4)CCN1C (stereo not drawn)
Result: -0.64

Request: Moving on to CC(C)(c1ccc(NS(=O)(=O)C(F)(F)F)cc1)c1ccc(C(C)(C)c2ccc(NS(=O)(=O)C(F)(F)F)cc2)cc1
Result: 1.28

Request: Moving on to O=C1C(=O)c2ncccc2-c2cccnc21
Result: -0.62

---

- Tested on: HeLa cells
Structures can show the parent of a compound that is named as a salt.

| molecule | cytotoxicity (in words) |
| --- | --- |
| COCCn1c2c([n+](Cc3cnccn3)c1C)C(=O)c1ccccc1C2=O | substantial cytotoxicity |
| CC(=O)c1cc2c(o1)C(=O)c1ccccc1C2=O | substantial cytotoxicity |
| CN(C)CCNc1nc2cc(O)ccc2c2c1C(=O)c1ccccc1-2 [Compound 68, TAS-103 (dihydrochloride)] | substantial cytotoxicity |
